Value source: the nanobody polyreactivity screen of Harvey et al. (2022)

experiment: yeast display, Sf9 membrane polyspecificity reagent, FACS + sequencing; frameworks hold sequencing errors
readout type: polyreactivity (PSR sort gate)

# example entries with known answers
macromolecule sequence	polyreactivity (PSR sort gate)
QVQLEESGGGLVQAEGSLRLICAASGSTFVYAMGWYRQSPGKERELVAAISYSGGSTYYADSVKGRFTISRDNAKTTVYLQMNSLKPEDTAVYYCAAYLVISAQRYYYWGQGTQVTVSS	high polyreactivity
QVQLLESGGGLVQAGGSLRLSCAASGYTFASYAMGWYRQAPGKERELVASISNGGGTNYADSVKGLFRISRDNAKNTVYLQMNSLKPEDTAVYYCAKRYRYYSHSYYYWGQCTQVTVSS	high polyreactivity
QVQLVESGAGLVQAGGSLRLSCAASGFTFDQYAMGWYRPATGKERELVAGISWGGGTTYYADSVKGRFTISRDNAKNTVYLHMNSLKPEDTAVYYCAAVRPGYPYYGSDYWGPGTQVTVSS	low polyreactivity
QVQLVESGGGLVQAGGSLRLSCAASGLIFSYYAMGWYRQAPGKERELVAAIDWISGSTYYADSVKGRFTISRDNAKNTVYLQMNSLKPEDTAVYYCAAYGSFWYAGFGYWGQGTQVTVSS	low polyreactivity

Now let's try a different one.
Entry "QVQLVESGGGLVQAGGSLRLSCAASGSIFRIYAMGWYRQAPGIERELVAAINAGGGRTYYADSVKGRFTISRDNAKNTVYLLMNSLKPEDTAVYYCAARHTEYRQESLYYWGQGTQVTVSS" ; polyreactivity (PSR sort gate) = low polyreactivity

====

assay: yeast display, Sf9 membrane polyspecificity reagent, FACS + sequencing; frameworks hold sequencing errors

macromolecule sequence	polyreactivity (PSR sort gate)
QVQLVESGGGLVQAGVSLRLSCASSGIIFPDYAMGWYRQAPGKERELVAAITRSGGRTFYADSVKGRFTISRDTAKNSVYLQMKSLKPEDTAVYYCAVSYSYLYYYWGQGTQVTVSS	high polyreactivity
QVHLVESAGGLVQAGGSLRLSCDASGFIFPRYDMGSYRQAPGKEREMVAAISRRGGSTNYADSVKGRFTISRDNAKNTVYLQMNSLKPEATAVYYCNADTTGYSSYGYDYWGQGSQVTVSS	high polyreactivity

====

test: yeast display, Sf9 membrane polyspecificity reagent, FACS + sequencing; frameworks hold sequencing errors
readout type: polyreactivity (PSR sort gate)

# example entries with known answers
macromolecule sequence	polyreactivity (PSR sort gate)
QVQLVESGGGLVQAGGSLRLSCAASGLIFPWNAMGWYRQAPGKERELVAAINGRDGSTYYADSVKGRFTISRDNAKNTVYLQMNSLKPEDTAVYYCAKGPSGVRTYREYDSWGQGTQVTVSS	low polyreactivity
QVQLVESGGGLVQPGGSLRLSCAASGFIFSYYVMGWYRQAPGKERELVAAITTSGDSTYYADSVKGRFTISRDNAKNSVYLQMNSLKPEDTAVYYCNTVYRYRYYWGQGTHVTVSS	high polyreactivity
QVQLVESGGGLVQAGGSLRLSCAASGSIFFYYAMGWYRQAPGKERELVASISTDGSTYADSVKGRFTISRDNAKNTVYLQMNSLKPEDTAVYYCNADTRGEYTYVSWYDYWGQGTQVTVSS	low polyreactivity
QVQLVESGGGLVQAGGSLRLSCAASGRIFGLYAMGWYRQAPGKERELVAGITYSGGTTYYADSVKGRFTISRDNAKNTVYLQMNSLKPEDTAVYYCNKRWYYQYGKYGYWGQGTQVTVSS	high polyreactivity
QVQLEESGGGLVQAGGSLRLSCAASGRTFSVNPMRWYRQAPGKERELVAAISWSTGSTYYADSVKGRFTISRDNAKNTVYLQMNSLKPEDTAVYYCAKLYEYRRSRYRTYGYWGQGTQVTVSS	high polyreactivity

Entry "QVQLVESGGGLVQAGGSLRLSCAASGIIFRANAMGWYRQAPGKERELVAAISRRGGSTYYADSVKGRFTISRDNAKNTVFLQMNSLKPEDTAVYYCAADGKNYPVGYDYWGQGTQVTVSS" ; polyreactivity (PSR sort gate) = high polyreactivity

Entry "QVQLVESGGGLVQAGGSLRLSCAASGSISSYAMGWYRQAPGKERELVASITWHGGGTYYADSVKGRFTISRDNAKNTVYLQMNSLKPEDTAVYYCNADYVYSWYEPLKYNYWGQGTQVTVSS" ; polyreactivity (PSR sort gate) = low polyreactivity

Entry "QVQLVESGGGLVQAGGSLRLSCAASRFTFSGYAMGWYRQAPGKERELVATISSSGSTYADSVKGRFTISRDNAKNTVYLQMNSLKPEDTAVYYCAKRVPFFDYWGQGTQVTVSS" ; polyreactivity (PSR sort gate) = low polyreactivity

Entry "QVKLQESGGGLVQAGGSLRLSCAASGNISVTGFMGWYRQAPGKERELVASIGIGGTTYYADSVKGRFSISRDNANNTLYLQMNSLKPEDTAVYYCAARYLYYAYSYWGQGTQVTVSS" ; polyreactivity (PSR sort gate) = low polyreactivity

Entry "QVQLVESGGGLVQAGGSLRLSCAASGSTFARNAMGWYRQAPGKERDLVAAITWSGGNTYYADSVKGRFTISRDNAKNTVYLQMNSLKPEDSAVYYCNKATRHHFYYWGQGTQVTVSS" ; polyreactivity (PSR sort gate) = high polyreactivity

Entry "QVQLVESGGGLVQAGGSLRLRCAASGRTLSSYAMGWYREAPGKERELVAAITRSGGSTYYADSVNGRFTISRDIAKNTVYLQMNSLKPEDTAVYYCAADGYRRYGSWGQGTQVTVSS" ; polyreactivity (PSR sort gate) = high polyreactivity
